Value source: patent US4188380A

Overview of recorded LD50 for various compounds
- method.description: Acute oral toxicity in Swiss albino mice
- Type: in vivo
- settings: mouse, in vivo, Swiss albino mice, read-out: median lethal toxicity, acute oral
- Description: The acute oral toxicity of didecyl dimethyl phosphonium chloride and dioctadecyl diethyl phosphonium chloride was determined using Swiss albino mice. The median lethal toxicities found were 350 and 2840 mg salt per body kg mice, respectively.

# compound, unit.abbrev, LD50
rows = [
    ("CCCCCCCCCCCCCCCCCC[P+](CC)(CC)CCCCCCCCCCCCCCCCCC.[Cl-] [Example 8, Dioctadecyl Diethyl Phosphonium Chloride]", "mg/kg", 2840),
    ("CCCCCCCCCC[P+](C)(C)CCCCCCCCCC.[Cl-] [Example 3, Didecyl Dimethyl Phosphonium Chloride]", "mg/kg", 350),
]
